ASSAY_PROTOCOL: NCI Yeast Anticancer Drug Screen. Data for the rad18 strain (AID 177)
APPLIED_CONDITIONS: S. cerevisiae rad18 mutant growth inhibition; at 100.0 µM
Compounds without any hit were thinned out: in the full panel of roughly 79,000, 15% have a hit. Active and inactive are the calls of the source. Cut-off read from the data, not from the text of the source: active = growth inhibition above about 70%; inactive = the rest.
Pick from 1 for active, -1 for inactive when you respond.

# count of solved cases: 5
Nc1ccc(Cl)cc1C(=O)c1ccccc1 = 1
CC1CCC2(NC1)OC1CC3C4CCC5CC(OC6OC(CO)C(OC7OC(CO)C(O)C(OC8OCC(O)C(O)C8O)C7OC7OC(CO)C(O)C(O)C7O)C(O)C6O)CCC5(C)C4CCC3(C)C1C2C (centres undefined) = -1
CCCCN(CCCC)CC(C(C)=O)C(c1ccccc1)c1c(O)c2ccccc2oc1=O (centres undefined) = -1
Oc1ccc2nc3ccccc3nc2c1 = 1
Nc1nc(N)c2c(Cl)c(CNc3ccc(C(=O)NC(CC(=O)O)C(=O)O)cc3)ccc2n1 (centres undefined) = 1

# input Call for entry O=C(NNC(=O)OCC(Cl)(Cl)Cl)OCC(Cl)(Cl)Cl :
# output -1

# input Called result for O=[N+]([O-])c1ccc(-n2nc3ccc4c(no[n+]4[O-])c3[n+]2[O-])c([N+](=O)[O-])c1
# output -1

# input Write down the call the test reported for this compound. Item: CC1CC(C)CC(C)C(O)/C(C#N)=C/C=C/CC(C2CCCC2C(=O)O)OC(=O)CC(O)C(C)C1 (centres undefined)
# output 1

# input What classification did COc1cc(O)c2c(O)c3c(c4c2c1[C@]1(C4)C(C)=CCCC1(C)C)[C@H](O)[C@@]1(O)CC(=O)C(C(N)=O)=C(O)[C@@]1(O)C3=O end up with in this test?
# output 1

---

ASSAY_PROTOCOL: NCI Yeast Anticancer Drug Screen. Data for the mlh1 rad18 strain (AID 175)
APPLIED_CONDITIONS: S. cerevisiae mlh1 rad18 strain growth inhibition; at 50.0 µM (retest, dose inferred, filed as 5.0); active compounds read high
Compounds without any hit were thinned out: in the full panel of roughly 79,000, 15% have a hit.
Could you label it Criterion met if measured growth inhibition is 90% or higher, and Criterion not met otherwise?

Please review the following examples before continuing.
CCOC(=S)S = Criterion met
[CH3][Sn]([CH3])([Cl])[c]1cc[c]([Sn]([CH3])([CH3])[Cl])cc1 = Criterion not met
N=P(c1ccccc1)(c1ccccc1)c1ccccc1.[O]=[Cr](=[O])([OH])[O][Cr](=[O])(=[O])[OH] = Criterion not met

# input Confirm if growth inhibition reported for the compound CCOC(=O)C(Cc1ccc(O)cc1)NCc1ccc(N(CCCl)CCCl)cc1 (stereo not given) is 90% or above.
# output Criterion not met

# input Reported growth inhibition reaches at least 90% for Cc1ccc(C(Cc2ccc(N3C(N)=NC(N)=NC3(C)C)cc2)C(=O)Nc2ccc(S(=O)(=O)F)cc2)cc1 (stereo not given) ?
# output Criterion met

# input API: above_or_equal(metric=growth inhibition, cutoff=90%) for item O=[N+]([O-])O.[NH-]C1CCCCC1[NH-].[NH-]C1CCCCC1[NH-].[NH-]C1CCCCC1[NH-].[OH-].[OH-].[OH-].[Pt+4].[Pt+4].[Pt+4] (stereo not given)
# output Criterion not met

# input Hi team, for CCCCN(CCCC)CC(C(C)=O)C(c1ccccc1)c1c(O)c2ccccc2oc1=O (stereo not given) , is the recorded growth inhibition at or above 90%?
# output Criterion not met
